target: HDAC3 (Homo sapiens, UniProt O15379); construct: purchased Enzo Life Sciences; experiment: HDAC Inhibition Screening Assay (FLUOR DE LYS Fluorimetric Drug Discovery Kit), HDAC3; assay type: biochemical; settings: 2 μM compound
Sequence (O15379 whole entry): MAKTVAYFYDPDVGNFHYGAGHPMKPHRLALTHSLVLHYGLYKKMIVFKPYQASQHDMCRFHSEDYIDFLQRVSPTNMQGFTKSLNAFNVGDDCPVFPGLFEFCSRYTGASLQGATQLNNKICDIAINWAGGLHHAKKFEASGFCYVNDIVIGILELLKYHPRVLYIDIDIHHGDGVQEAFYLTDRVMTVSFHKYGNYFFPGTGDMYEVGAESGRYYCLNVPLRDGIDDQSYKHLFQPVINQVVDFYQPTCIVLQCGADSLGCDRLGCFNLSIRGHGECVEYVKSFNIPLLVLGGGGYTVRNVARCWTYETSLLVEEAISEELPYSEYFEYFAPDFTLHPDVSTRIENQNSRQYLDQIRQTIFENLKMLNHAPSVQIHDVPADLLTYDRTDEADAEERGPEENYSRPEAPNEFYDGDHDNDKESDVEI
Sequence (O75376 395-489 partner limits assumed): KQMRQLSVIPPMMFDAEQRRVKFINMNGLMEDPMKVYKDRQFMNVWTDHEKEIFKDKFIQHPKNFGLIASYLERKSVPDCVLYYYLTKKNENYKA
endpoint_name: inhibition at 2 µM

{"compound": "Nc1cc(F)ccc1NC(=O)/C=C/c1ccc2c(c1)CCCC2OCc1cc(C(F)(F)F)cc(C(F)(F)F)c1 (stereo not shown) [Compound 35]", "measured_result": "< 50%"}
{"compound": "O=C(CCCCCCC(=O)Nc1ccc2c(c1)CCCC2O)NO (stereo not shown) [Compound 2]", "measured_result": "> 80%"}
{"compound": "O=C(/C=C/c1ccc2c(c1)CCC2NC(=O)CCCCCCC(=O)NO)Nc1cc(Cl)cc(Cl)c1 (stereo not shown) [Compound 42]", "measured_result": "50 to 80%"}
{"compound": "Nc1cc(F)ccc1NC(=O)c1ccc(COc2ccc3c(c2)CCC(Cc2cc(C(F)(F)F)cc(C(F)(F)F)c2)C3=O)cc1 (stereo not shown) [Compound 67]", "measured_result": "< 50%"}
{"compound": "O=C(CCCCCC(=O)Nc1ccc2c(c1)CC/C(=C\\c1cc(C(F)(F)F)cc(C(F)(F)F)c1)C2=O)NO [Compound 12]", "measured_result": "50 to 80%"}
{"compound": "CN(C)c1ccc(CCNC2CCc3cc(/C=C/C(=O)NO)ccc32)cc1 (stereo not shown) [Compound 56]", "measured_result": "> 80%"}
{"compound": "CN(C(=O)OCc1cc(C(F)(F)F)cc(C(F)(F)F)c1)C1CCc2cc(/C=C/C(=O)NO)ccc21 (stereo not shown) [Compound 64]", "measured_result": "< 50%"}
{"compound": "O=C(/C=C/c1ccc2c(c1)CCC2NC(=O)c1cc(C(F)(F)F)cc(C(F)(F)F)c1)NO (stereo not shown) [Compound 22]", "measured_result": "50 to 80%"}
{"compound": "COc1ccc2c(c1)CCCC2NC(=O)CCCCCCC(=O)Nc1ccc(F)cc1N (stereo not shown) [Compound 47]", "measured_result": "50 to 80%"}
{"compound": "Cc1[nH]c2ccccc2c1CCNC1CCCc2cc(/C=C/C(=O)NO)ccc21 (stereo not shown) [Compound 63]", "measured_result": "> 80%"}
{"compound": "O=C(CCCCCCC(=O)NC1CCCc2cc(Br)ccc21)NO (stereo not shown) [Compound 46]", "measured_result": "< 50%"}
{"compound": "O=C(CCCCCNC(=O)COc1ccc2c(c1)CC/C(=C\\c1cc(C(F)(F)F)cc(C(F)(F)F)c1)C2=O)NO [Compound 74]", "measured_result": "< 50%"}
{"compound": "Cc1ccc(S(=O)(=O)NC2CCc3cc(/C=C/C(=O)NO)ccc32)cc1 (stereo not shown) [Compound 16]", "measured_result": "> 80%"}
{"compound": "Nc1cc(F)ccc1NC(=O)c1ccc(COc2ccc3c(c2)CC(Cc2cc(C(F)(F)F)cc(C(F)(F)F)c2)C3=O)cc1 (stereo not shown) [Compound 76]", "measured_result": "< 50%"}
{"compound": "COc1ccc(CCNC2CCc3cc(/C=C/C(=O)Nc4ccc(F)cc4N)ccc32)cc1 (stereo not shown) [Compound 51]", "measured_result": "> 80%"}
{"compound": "COc1ccc(C(=O)NC2CCc3cc(/C=C/C(=O)NO)ccc32)cc1 (stereo not shown) [Compound 25]", "measured_result": "> 80%"}

Reference source for all entries: patent US12162820B2
